- MEASURED_TARGET: monomeric N-terminal cynomolgus LTbR (ECD full length) hu IgG1 Fc-fusion kih HRYF avi biotinylated (P1AE2656) (cynomolgus, UniProt P0DOX5 223-449 = IgG part, biotinylated avi tag)
- ASSAY_NOTES: direct ELISA
I'd appreciate it if you could supply max. binding (OD) values for the items below.
Write the figure, then the unit, nothing else.

Q: Item under review: P1AF0079 (antibody, human IgG1, kappa, L234A L235A, V domains shown, human IgG1 PG LALA; from transgenic rabbit immunization; also called LTBR (0079)) VH: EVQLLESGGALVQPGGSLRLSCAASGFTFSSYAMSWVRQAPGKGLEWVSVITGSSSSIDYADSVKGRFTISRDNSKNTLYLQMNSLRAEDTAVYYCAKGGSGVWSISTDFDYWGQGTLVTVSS VL: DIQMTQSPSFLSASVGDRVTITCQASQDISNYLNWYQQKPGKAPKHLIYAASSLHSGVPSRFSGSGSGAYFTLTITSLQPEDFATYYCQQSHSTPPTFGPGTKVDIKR . Reported max. binding (OD)?
Result: 2.97 OD

Q: # query: max. binding (OD) of entry P1AE1873 (CBE11) (antibody, human IgG1, kappa, L234A L235A, V domains shown) VH: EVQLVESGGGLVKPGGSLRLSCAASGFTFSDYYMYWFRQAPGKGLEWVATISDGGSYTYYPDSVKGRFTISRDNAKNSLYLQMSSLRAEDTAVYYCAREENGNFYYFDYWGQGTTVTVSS VL: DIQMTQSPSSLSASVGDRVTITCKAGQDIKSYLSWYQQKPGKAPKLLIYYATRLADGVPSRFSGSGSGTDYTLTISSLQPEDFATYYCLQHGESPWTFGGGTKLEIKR
Result: 0.126 OD

Q: Reported max. binding (OD) for P1AE9459 (antibody, human IgG1, kappa, L234A L235A, V domains shown, human IgG1 PG LALA; from transgenic rabbit immunization) VH: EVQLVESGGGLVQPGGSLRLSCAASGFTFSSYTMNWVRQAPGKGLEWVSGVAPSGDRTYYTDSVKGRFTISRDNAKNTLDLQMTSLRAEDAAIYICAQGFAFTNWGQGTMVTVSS VL: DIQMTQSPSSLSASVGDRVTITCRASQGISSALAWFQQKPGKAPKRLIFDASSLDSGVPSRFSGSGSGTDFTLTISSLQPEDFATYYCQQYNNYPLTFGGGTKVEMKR : what is it?
Result: 3.51 OD

Q: Request the reported max. binding (OD) associated with P1AF0080 (antibody, human IgG1, kappa, L234A L235A, V domains shown, human IgG1 PG LALA; from transgenic rabbit immunization; also called LTBR (0080)) VH: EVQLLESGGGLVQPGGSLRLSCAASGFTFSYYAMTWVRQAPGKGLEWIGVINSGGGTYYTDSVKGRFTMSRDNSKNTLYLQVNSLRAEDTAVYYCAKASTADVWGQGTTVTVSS VL: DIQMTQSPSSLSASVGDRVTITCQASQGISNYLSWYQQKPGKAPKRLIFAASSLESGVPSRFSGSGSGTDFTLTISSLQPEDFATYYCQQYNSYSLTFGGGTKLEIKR
Result: 3.21 OD

Q: Need max. binding (OD), item P1AE9457 (antibody, human IgG1, kappa, L234A L235A, V domains shown, human IgG1 PG LALA; from transgenic rabbit immunization; also called LTBR (9457)) VH: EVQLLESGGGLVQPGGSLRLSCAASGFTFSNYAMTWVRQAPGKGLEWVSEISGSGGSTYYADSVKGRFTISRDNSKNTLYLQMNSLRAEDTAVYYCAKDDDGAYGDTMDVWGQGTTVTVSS VL: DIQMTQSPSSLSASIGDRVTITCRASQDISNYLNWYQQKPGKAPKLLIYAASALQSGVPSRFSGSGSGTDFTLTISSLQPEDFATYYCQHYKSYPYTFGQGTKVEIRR
Result: 3.23 OD
